All values here come from ChEMBL document CHEMBL4002623.

- Test system: Staphylococcus epidermidis
- method: Antibacterial activity against methicillin-sensitive Staphylococcus epidermidis 09-9 by agar dilution method
- Type: functional
property name: MIC (µg/mL)
Supply the numeric figure in µg/mL, leaving out any unit text.

molecule	target or system	value unit	experimental value
CN(C)C(=N)c1ccc2cc(-c3ccc(Oc4ccc(-c5cc6ccc(C(=N)N(C)C)cc6[nH]5)cc4)cc3)[nH]c2c1	Staphylococcus epidermidis	µg/mL	0.25
c1cc(-c2cc3ccc(C4=NCCN4)cc3[nH]2)ccc1Oc1ccc(-c2cc3ccc(C4=NCCN4)cc3[nH]2)cc1	Staphylococcus epidermidis	µg/mL	2
CCC(C)NC(=N)c1ccc2cc(-c3ccc(Oc4ccc(-c5cc6ccc(C(=N)NC(C)CC)cc6[nH]5)cc4)cc3)[nH]c2c1 (centres undefined)	Staphylococcus epidermidis	µg/mL	2

Below: the item to evaluate.
Exam item: Record request: MIC value, item "N=C(c1ccc2cc(-c3ccc(Oc4ccc(-c5cc6ccc(C(=N)N7CCC(N8CCCC8)CC7)cc6[nH]5)cc4)cc3)[nH]c2c1)N1CCC(N2CCCC2)CC1"
Marked response: 8
